Data provenance: patent US20090181963A1

biological target: PI3 Kinase α (Homo sapiens, UniProt P42336); assay: Fluorescence polarization assay for PI3K (PI3 Kinase α); type: biochemical; conditions: diC8-PI(4,5)P2 substrate, 25 μM ATP, one hour at 25° C.
Sequence (P42336 whole entry): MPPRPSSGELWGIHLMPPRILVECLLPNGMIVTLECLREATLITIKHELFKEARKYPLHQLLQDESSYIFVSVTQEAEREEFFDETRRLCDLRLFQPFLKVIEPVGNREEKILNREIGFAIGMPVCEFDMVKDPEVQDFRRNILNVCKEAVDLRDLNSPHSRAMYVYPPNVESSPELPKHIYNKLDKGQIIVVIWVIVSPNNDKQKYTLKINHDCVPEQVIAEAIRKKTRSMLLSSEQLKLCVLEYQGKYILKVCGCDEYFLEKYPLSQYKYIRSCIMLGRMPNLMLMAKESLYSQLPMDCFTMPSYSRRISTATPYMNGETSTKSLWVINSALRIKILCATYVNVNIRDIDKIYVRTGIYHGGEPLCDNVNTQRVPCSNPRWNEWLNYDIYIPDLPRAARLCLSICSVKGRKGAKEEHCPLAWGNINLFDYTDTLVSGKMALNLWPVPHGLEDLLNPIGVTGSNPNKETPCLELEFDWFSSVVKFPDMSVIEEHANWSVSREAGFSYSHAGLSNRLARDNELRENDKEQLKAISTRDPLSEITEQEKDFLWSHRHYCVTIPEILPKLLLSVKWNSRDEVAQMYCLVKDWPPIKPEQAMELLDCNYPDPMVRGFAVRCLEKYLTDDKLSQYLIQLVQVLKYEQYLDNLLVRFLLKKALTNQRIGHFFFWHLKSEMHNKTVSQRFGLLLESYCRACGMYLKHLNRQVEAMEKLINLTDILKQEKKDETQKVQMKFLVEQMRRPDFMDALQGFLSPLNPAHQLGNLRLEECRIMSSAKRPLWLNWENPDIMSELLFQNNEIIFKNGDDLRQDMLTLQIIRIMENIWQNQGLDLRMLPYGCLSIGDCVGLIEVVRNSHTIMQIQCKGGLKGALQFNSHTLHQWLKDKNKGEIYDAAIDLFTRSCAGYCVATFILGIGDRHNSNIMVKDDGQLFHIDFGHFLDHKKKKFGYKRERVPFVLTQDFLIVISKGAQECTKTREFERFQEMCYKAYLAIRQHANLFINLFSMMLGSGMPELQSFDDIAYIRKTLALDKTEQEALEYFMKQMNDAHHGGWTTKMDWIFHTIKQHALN
Sequence (P27986 whole entry partner): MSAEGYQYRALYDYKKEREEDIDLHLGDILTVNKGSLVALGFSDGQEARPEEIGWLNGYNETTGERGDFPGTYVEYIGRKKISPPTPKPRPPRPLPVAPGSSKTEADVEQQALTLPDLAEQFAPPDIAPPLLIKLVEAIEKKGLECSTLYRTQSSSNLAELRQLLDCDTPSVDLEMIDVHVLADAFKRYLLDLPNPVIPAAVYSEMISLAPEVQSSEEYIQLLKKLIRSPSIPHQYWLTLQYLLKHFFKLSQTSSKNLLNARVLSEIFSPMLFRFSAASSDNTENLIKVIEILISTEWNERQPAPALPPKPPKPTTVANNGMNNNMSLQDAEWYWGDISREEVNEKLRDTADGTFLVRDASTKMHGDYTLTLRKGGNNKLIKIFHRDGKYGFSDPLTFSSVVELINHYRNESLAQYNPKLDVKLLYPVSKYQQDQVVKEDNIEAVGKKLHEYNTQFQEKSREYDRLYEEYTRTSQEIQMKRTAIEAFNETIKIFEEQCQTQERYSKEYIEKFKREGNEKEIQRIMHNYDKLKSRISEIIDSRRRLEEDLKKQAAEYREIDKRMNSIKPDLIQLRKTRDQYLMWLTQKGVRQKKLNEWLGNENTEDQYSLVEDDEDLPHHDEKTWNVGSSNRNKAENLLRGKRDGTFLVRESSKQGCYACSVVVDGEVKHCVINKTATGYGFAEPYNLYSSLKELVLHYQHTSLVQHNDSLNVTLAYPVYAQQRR
pIC50: −log10 of the molar value.
MEASURED_ATTRIBUTE: pIC50

Please review the following examples before continuing.
CCn1nnc2c(N3CCOCC3)nc(-c3ccc(NC(=O)Nc4ccc(C(=O)N(C)CCN(C)C)cc4)cc3)nc21 :: > 8.66
COC(=O)NC(=O)Nc1ccc(-c2nc(N3CCOCC3)c3nnn(C4CCN(C(=O)OC(C)(C)C)CC4)c3n2)cc1 :: < 5.00
CN(C)CCNC(=O)c1ccc(Cn2nnc3c(N4CCOCC4)nc(-c4cccc(O)c4)nc32)cc1 :: 6.41

Consider the compound shown here: "CCn1nnc2c(N3CCOCC3)nc(-c3ccc(NC(=O)Nc4ccc(C(=O)NCCN5CCN(C)CC5)cc4)cc3)nc21" What is its recorded pIC50? > 8.51
